- Tested on: SK-MEL-2 melanoma
- Assay remarks: NCI-60 one-dose screen, 48 h
- Condition parameters: 10 µM unless noted
- Protocol: Growth inhibition of the SK-MEL-2 human tumor cell line is measured as a screen for anti-cancer activity. Cells are grown in 96 well plates and exposed to the test compound for 48 hours. Compounds are tested at a single concentration, which is 10^-5 M for most compounds. The reported endpoint is percent growth (GI% or GIPRCNT), where numbers from 0 - 100% represent growth inhibition, and numbers from -100% - 0 represent cell death. For example, a value of 40 represents 60% growth inhibition. […]
Compounds without any hit were thinned out: in the full panel of roughly 83,000, 20% have a hit. Calls of active or inactive are those of the source. How the source made its calls: active means growth percent below 10; inactive means the rest.
Possible outcomes: y for active, n for inactive

# Compound, Class label
records = [
    ("O=C1c2nsnc2C(=O)c2c(F)c(F)c(F)c(F)c21", "y"),
    ("COc1cccc(/C=C2\\COc3ccc(O)c(O)c3C2=O)c1OC", "n"),
    ("CCN(CC)c1ccc(N=Nc2cc(Cl)ccc2Cl)c(NC(=O)CCC(=O)O)c1", "n"),
    ("COc1ccc(C2=NN(C(C)=O)C(c3cc(OC)c(OC)c(OC)c3)C2)cc1 (centres undefined)", "n"),
]
